Target: T1, human CD47 extracellular domain (CD47(ECD)) (human, UniProt Q08722 19-139)
T1 construct: extracellular domain; Bought protein; also called human CD47(ECD); immobilized CD47
T1 sequence (Q08722 19-139 limits assumed): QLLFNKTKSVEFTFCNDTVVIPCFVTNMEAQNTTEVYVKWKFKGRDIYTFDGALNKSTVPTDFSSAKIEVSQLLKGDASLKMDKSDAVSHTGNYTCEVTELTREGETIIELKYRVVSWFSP
Test: ELISA, human CD47(ECD) coated on plate
Measured EC50 values are reported for all entries that follow.
resultType: EC50 (nM)

- humanized anti-CD47 mAb KH3L1 (antibody, V domains shown) VH: EVRLSQSGGQMKKPGESMRLSCRASGYTFTSYWMHWVRQAPGRRLEWIGNIDPSDSETHYARKFQGRATLTVDKYSDTAFLELRSLTSDDTAVYYCAGTDLAYWGRGAPVTVSS VL: EIVMTQSPGTLSLSPGERATLSCHASQNINVWLSWYQQKPGQAPRLLIYKASNLHTGIPDRFSGSGSGTDFTLTISRLEPEDFAVYYCQQGQSYPFTFGQGTKVEIK: 0.09
- humanized anti-CD47 mAb KH3L3 (antibody, V domains shown) VH: EVRLSQSGGQMKKPGESMRLSCRASGYTFTSYWMHWVRQAPGRRLEWIGNIDPSDSETHYARKFQGRATLTVDKYSDTAFLELRSLTSDDTAVYYCAGTDLAYWGRGAPVTVSS VL: EIVMTQSPATLSLSPGETAIISCHASQNINVWLSWYQQRPGQAPRLLIYKASNLHTGIPDRFSGSGWGTDFNLSISNLESGDFGVYYCQQGQSYPFTFGQGTKVEIK: 0.18
- humanized anti-CD47 mAb KH2L2 (antibody, V domains shown, also called anti-CD47 parental mAb) VH: QVQLVQSGAEVKKPGASVKVSCKASGYTFTSYWMHWVRQAPGQGLEWIGNIDPSDSETHYAQKFQGRVTLTVDKSTSTVYMELSSLRSEDTAVYYCAGTDLAYWGQGTLVTVSS VL: EIVLTQSPGTLSLSPGERATLSCHASQNINVWLSWYQQKPGQAPRLLIYKASNLHTGIPDRFSGSGSGTDFTLTISRLEPEDFAVYYCQQGQSYPFTFGQGTKVEIK: 0.18
